B1: SLC35F2 (parent)
chain: FVAFALCMFCLYSFMPLVIKVTSA

# Variants of: B1
# Test Description: protein stability index of a GFP-peptide fusion (GPS, HEK-293T) (PSI 1-6); higher = more stable;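 also: lentivirally expressed fusions sorted by FACS into six bins by GFP to DsRed ratio, PSI derived from sequencing read proportions per bin multiplied by bin number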
# Condition Info: c terminus: a fixed tail appended
Endpoint Label: protein stability index
Respond using a number only.

Reference set, count: 10
> print(dat)
                         seq.string  meas.value
 1  FVAFALCMFCLYSFMPLVIKVTIA [S23I]        2.45
 2   FVWFALCMFCLYSFMPLVIKVTSA [A3W]        2.55
 3  FVAFALCMFYLYSFMPLVIKVTSA [C10Y]        2.28
 4  FVAFALCMFCLYQFMPLVIKVTSA [S13Q]        2.36
 5   FLAFALCMFCLYSFMPLVIKVTSA [V2L]        3.45
 6   FVAFALCMVCLYSFMPLVIKVTSA [F9V]        2.56
 7  FVAFALCMFPLYSFMPLVIKVTSA [C10P]        2.35
 8  FVAFALCMFCWYSFMPLVIKVTSA [L11W]        2.44
 9  FVAFALCMFCLYSFMPLVIKVTSP [A24P]         3.3
10   FGAFALCMFCLYSFMPLVIKVTSA [V2G]        3.29

Specify measured protein stability index for FVAYALCMFCLYSFMPLVIKVTSA [F4Y] .
2.33

Specify measured protein stability index for FVAFALCMFCLYSFMPLVILVTSA [K20L] .
3.04

Specify measured protein stability index for FSAFALCMFCLYSFMPLVIKVTSA [V2S] .
2.71

Specify measured protein stability index for FVAFALCMNCLYSFMPLVIKVTSA [F9N] .
2.31

Specify measured protein stability index for FVAFALCMFCLYSFMPLVIVVTSA [K20V] .
2.56

Specify measured protein stability index for FVAFALCMFCLYSFLPLVIKVTSA [M15L] .
3.33
